system: Staphylococcus aureus; assay: Membrane disrupting activity in methicillin-resistant Staphylococcus aureus BF1 assessed as antibacterial activity by measuring inhibition of bacterial growth by CLSI-based antimicrobial dilution susceptibility method
property.name: MIC (µg/mL)
Express the result in µg/mL but write the number alone.

Use these answered entries as a reference point.
chemical.string	endpoint.unit	MIC
NCCOc1c(Cl)cc(Cl)cc1Sc1cc(Cl)cc(Cl)c1OCCN	µg/mL	64
NCCOc1cc(C(=O)O)cc2ccc(-c3ccc(O)c(C45CC6CC(CC(C6)C4)C5)c3)cc12	µg/mL	8
NCCOc1cc(CO)cc2ccc(-c3ccc(O)c(C45CC6CC(CC(C6)C4)C5)c3)cc12	µg/mL	4
O=C(O)c1ccc2cc(-c3ccc(O)c(C45CC6CC(CC(C6)C4)C5)c3)ccc2c1	µg/mL	2

--- query ---
Challenge: Tell me reported MIC for `Oc1c(Cl)cc(Cl)cc1Sc1cc(Cl)cc(Cl)c1O` , tested with Staphylococcus aureus.
Response given: 1
